These entries and their values trace back to PubChem BioAssay AID1159580.

assay-comment: chemical genetic growth profiling, strain panel (AID 1159580);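 also: tested at 20 µM; growth read once vehicle control cultures reached saturation at 30 °C; 1 = growth at the plate median or of vehicle wells; lower values mean less growth of the strain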
test-conditions: S. cerevisiae deletion strains, growth OD, locus YPL209C, strain IPL1, stronger effect = lower value
Screen size: about 5,500 compounds; about 2,000 (36%) were called active. Inconclusive results (about 18%) are left out. This is one part of the list.
The entries below come with measured normalized growth values attached.

record-smiles | normalized growth
Fc1cccc(F)c1NC(=S)Nc1cc(C(F)(F)F)cc(C(F)(F)F)c1 | 0.991
O=C(NCCSCc1cccc(C(F)(F)F)c1)c1ccc(Cl)cc1 | 0.968
O=C(NC(=S)Nc1cccc(C(F)(F)F)c1)c1ccc2nonc2c1 | 0.945
FC(F)(F)c1cccc(NC(=S)Nc2ccccc2)c1 | 0.978
N#CCC(=O)NNC(=S)Nc1ccc(Cl)c(Cl)c1 | 0.987
O=S(=O)(N/N=C\c1ccc(Cl)cc1)c1ccc(-c2ccccn2)s1 | 0.974

----------
assay-comment: chemical genetic growth profiling, strain panel (AID 1159580);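 also: tested at 20 µM; growth read once vehicle control cultures reached saturation at 30 °C; 1 = growth at the plate median or of vehicle wells; lower values mean less growth of the strain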
test-conditions: S. cerevisiae deletion strains, growth OD, locus YMR263W, strain SAP30, stronger effect = lower value
Screen size: about 5,500 compounds; about 2,000 (36%) were called active. About 18% were inconclusive and are not listed. The list shows a part of the results.

compound | normalized growth
CSc1c(C#N)c(-c2cccs2)nn1C | 0.949
CCN(CC)CCOc1ccc(/C(=C(\Cl)c2ccccc2)c2ccccc2)cc1 | 0.0606
CC1(C)CC2C1(O)CCC1(C)C=CC(O)C21CO (stereo not given) | 1.01
Oc1c(Cl)cc(Cl)c2cccnc12 | 0.057
CCCC1O[C@@H]2CC3C4CCC5=CC(=O)C=CC5(C)C4[C@@H](O)CC3(C)[C@]2(C(=O)CO)O1 (stereo not given in full) | 0.999
CCN(CC)CCOc1ccc2c(c1)C(=O)c1cc(OCCN(CC)CC)ccc1-2 | 1
C#CCOc1c(Cl)cccc1Cl | 0.998
CC/C(=C(\c1ccccc1)c1ccc(OCCN(C)C)cc1)c1ccccc1 | 0.0557
C[n+]1cccc(C(=O)[O-])c1 | 1.03
Cc1c(Cl)cccc1NC(=S)Nc1ccc(Cl)cc1C(=O)c1ccccc1 | 0.993
C[C@H]1[C@H]2CCC3C4CC=C5C[C@@H](N(C)C)CC[C@]5(C)C4CC[C@@]32CN1C (stereo not given in full) | 0.987
c1ccc2c(c1)cc1ccc3cccc4ccc2c1c34 | 1.03
CN(C)C=Nc1nnc(Sc2ncccc2[N+](=O)[O-])s1 | 0.995
c1ccc2c3c([nH]c2c1)CNCC3 | 1
NC(=O)c1ccccc1N1CCCCC1 | 0.941
CC[N+](CC)(CC)CC(=O)Nc1c(C)cccc1C | 1
CC(C)(C)C(=O)NC(=S)Nc1cccc(C(F)(F)F)c1 | 0.953
c1ccc2c(c1)CCc1c-2[nH]c2ccccc12 | 0.634
Oc1ccc(Cl)c2cccnc12 | 0.0554
CN(CCOc1ccc(C[C@H](Nc2ccccc2C(=O)c2ccccc2)C(=O)O)cc1)c1ccccn1 | 1
Fc1cc2n[nH]nc2cc1Cl | 0.931
CCCC(C)C1(CC)C(=O)N=C(S)NC1=O (stereo not given) | 1.01
CC(=O)c1sc(SCc2ccc(Cl)cc2)c2c1CC(C)(C)CC2=O | 0.936
Cc1ccc2cc3c(ccc4ccccc43)c3c2c1CC3 | 0.986
CCn1nc(C)c(Br)c1-c1nc(-c2ccc(C(F)(F)F)cc2)no1 | 1.02

----------
assay-comment: chemical genetic growth profiling, strain panel (AID 1159580);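 also: tested at 20 µM; growth read once vehicle control cultures reached saturation at 30 °C; 1 = growth at the plate median or of vehicle wells; lower values mean less growth of the strain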
test-conditions: S. cerevisiae deletion strains, growth OD, locus YLL001W, strain dnm1, stronger effect = lower value
Among all 5,500 compounds or so, about 2,000 (36%) were called active. Not shown: some 18% with an inconclusive outcome. This is one part of the list.
// normalized growth lookup, one value per entry

compound | normalized growth
CC(=O)Nc1ccc(S(=O)(=O)c2ccc(NC(C)=O)cc2)cc1 | 1.01
O=C(O)C1=CCNCC1 | 1.01
CC1(C)C(=O)C=C[C@@]2(C)C1=C(O)C(=O)[C@]1(C)C2CC[C@@]2(C)[C@H](c3ccoc3)C[C@H]3O[C@]321 (stereo partly drawn) | 0.931
CCCCC(CC)CN1CN(CC(CC)CCCC)CC(C)(N)C1 (stereo not drawn) | 0.0613
CN[C@H](CC(=O)O)C(=O)O | 1.03
COc1ccccc1OCCNCC(O)COc1cccc2[nH]c3ccccc3c12 (stereo not drawn) | 1.01
NCC(O)c1ccc(O)cc1 (stereo not drawn) | 1
O=C(O)c1ccccc1Nc1ccccc1 | 0.966
C=C(C)C1CC=C(CO)CC1 (stereo not drawn) | 0.988
C=CC(C1=CC(=O)C(OC)=CC1=O)c1ccccc1 (stereo not drawn) | 0.885
NC(=NCCC[C@H](N)C(=O)O)NC(CCC(=O)O)C(=O)O (stereo partly drawn) | 1.01
O=C1O[C@H](C(O)CO)C(O)=C1O (stereo partly drawn) | 0.987
CC(=O)O[C@@H]1C[C@@]2(C)[C@H](c3ccoc3)C[C@H]3O[C@]32[C@]2(C)C(=O)C(O)=C3C(C)(C)C(=O)C=C[C@]3(C)C12 (stereo partly drawn) | 0.979
C=CC(C1=CC(=O)C=CC1=O)c1ccccc1 (stereo not drawn) | 0.978
CC/C(=C(\c1ccccc1)c1ccc(OCCN(C)C)cc1)c1ccccc1 | 0.0862
OC[C@@H]1CCCN2CCCC[C@H]12 | 0.995
O=C(NC(=O)c1c(F)cccc1F)Nc1ccc(Cl)cc1 | 0.996
O=C(O)CCCCC1CCSS1 (stereo not drawn) | 0.95
Nc1ncn([C@@H]2O[C@H](CO)[C@@H](O)[C@H]2O)c(=O)n1 | 0.952
C=C(C)[C@H]1CC=C(C(=O)O)CC1 | 0.944
O=C(O)/C=C/C=C/c1ccccc1 | 0.782
Oc1c(Cl)cc(Cl)c2cccnc12 | 0.0628
CCN(CC)CCOc1ccc(/C(=C(\Cl)c2ccccc2)c2ccccc2)cc1 | 0.108
Nc1ncnc2c1ncn2[C@@H]1O[C@H](CO)[C@@H](O)[C@H]1O | 0.922
C=CC(C1=CC(=O)C(OC)=CC1=O)c1ccc(OC)cc1 (stereo not drawn) | 0.907
CN1C(CC(=O)c2ccccc2)CCCC1CC(O)c1ccccc1 (stereo not drawn) | 0.967
O=c1[nH]c(=O)n(C2C[C@@H](O)[C@@H](CO)O2)cc1F (stereo partly drawn) | 0.992
C=CC(C)(O)CC/C=C(\C)CCC=C(C)C (stereo not drawn) | 0.978
CC(=O)c1c(O)c(C)c(O)c2c1OC1=CC(=O)C(C(C)=O)C(=O)C12C (stereo not drawn) | 0.933
C=C(NC(=O)C(=C)NC(=O)c1csc(C2=NC3c4csc(n4)C4NC(=O)c5csc(n5)C(C(C)(O)C(C)O)NC(=O)C5CSC(=N5)C(=CC)NC(=O)C(C(C)O)NC(=O)c5csc(n5)C3(CC2)NC(=O)C(C)NC(=O)C(=C)NC(=O)C(C)NC(=O)C(C(C)CC)NC2C=Cc3c(C(C)O)cc(nc3C2O)C(=O)OC4C)n1)C(N)=O (stereo not drawn) | 1.02
COC(C)(C)CCC[C@H](C)C/C=C/C(C)=C/C(=O)OC(C)C | 1.01
Cc1ccsc1/C=C/C1=NCCCN1C | 0.979
CCOP(=S)(OCC)SCn1c(=O)oc2cc(Cl)ccc21 | 0.967
CC1(C)CCCC2(C)C3C1[C@@H](O)C2(C)C[C@H]3O (stereo partly drawn) | 0.994
Oc1ccc(Cl)c2cccnc12 | 0.0833
CO[C@H]1/C=C/O[C@@]2(C)Oc3c(C)c(O)c4c(O)c(c5c(nc6cc(C)ccn65)c4c3C2=O)NC(=O)/C(C)=C\C=C\[C@H](C)[C@H](O)[C@@H](C)C(O)[C@@H](C)[C@H](OC(C)=O)[C@@H]1C (stereo partly drawn) | 1.08
CC(=O)O[C@H]1C[C@@H](OC(C)=O)C(C)(C)C2C[C@@H](OC(C)=O)[C@@]3(C)C4=CC(=O)O[C@@H](c5ccoc5)[C@]4(C)CCC3[C@]21C (stereo partly drawn) | 1.02
Cc1occc(=O)c1O | 0.96
Cc1c(O)c(O)cc2c1CC=C1[C@@]2(C)CC[C@@]2(C)C3C[C@](C)(C(=O)O)CC[C@]3(C)CC[C@]12C (stereo partly drawn) | 0.617
Oc1c(I)cc(Cl)c2cccnc12 | 0.0857
CC(=O)O[C@@H]1CC2C(C)(C)C=CC(=O)[C@]2(C)C2CC[C@@]3(C)[C@H](c4ccoc4)OC(=O)C4OC43[C@@]21C (stereo partly drawn) | 1.01
CN(C)CCOC(C)(c1ccccc1)c1ccccn1 (stereo not drawn) | 1.02
Nc1ncnc2c1ncn2C1C[C@H](O)[C@@H](CO)O1 (stereo partly drawn) | 1.02

----------
assay-comment: chemical genetic growth profiling, strain panel (AID 1159580);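 also: tested at 20 µM; growth read once vehicle control cultures reached saturation at 30 °C; 1 = growth at the plate median or of vehicle wells; lower values mean less growth of the strain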
test-conditions: S. cerevisiae deletion strains, growth OD, locus YDR335W, strain msn5, stronger effect = lower value
About 2,000 (36%) of roughly 5,500 compounds were called active. About 18% were inconclusive and are not listed. The list shows a part of the results.
Overview of recorded normalized growth for various molecules
test-readout: normalized growth

molecule | test-readout | measured-number
Cc1c(Nc2ncccc2C(=O)O)cccc1C(F)(F)F | normalized growth | 0.983
C1CNCCN1 | normalized growth | 1.01
O=C(O)C1=CCNCC1 | normalized growth | 1.02
C[C@H]1[C@H]2CCC3C4CC=C5C[C@@H](N(C)C)CC[C@]5(C)C4CC[C@@]32CN1C (stereo partly specified) | normalized growth | 0.992
C=C(C)[C@H]1CC=C(C(=O)O)CC1 | normalized growth | 0.975
Cc1c(O)c(O)cc2c1CC=C1[C@@]2(C)CC[C@@]2(C)C3C[C@](C)(C(=O)O)CC[C@]3(C)CC[C@]12C (stereo partly specified) | normalized growth | 0.698
